# system.tested: T1, hNPR1-mFc:hANP or hNPR1-hFc:hANP complex (human, UniProt P01160 124-151)
# T1 construct: also called human NPR1 complexed to ANP
# procedure.details: SPR, mAb captured, 37C
pKd: −log10 of the molar value.

binder	pKd
mAb22035 (antibody, human IgG4, V domains shown) VH: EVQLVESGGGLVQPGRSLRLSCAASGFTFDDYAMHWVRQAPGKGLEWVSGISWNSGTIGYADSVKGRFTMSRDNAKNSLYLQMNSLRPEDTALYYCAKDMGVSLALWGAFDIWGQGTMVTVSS VL: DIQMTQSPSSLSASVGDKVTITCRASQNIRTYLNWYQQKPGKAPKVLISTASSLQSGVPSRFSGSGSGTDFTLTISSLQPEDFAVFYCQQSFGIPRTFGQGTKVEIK	9.29

Numbers sourced from patent US20240309103A1.
